The measurements presented in this section are drawn from a melting point compilation (Tetko et al.; mined from patent text by program, amines drawn as free bases though some values may be those of a salt).

Measurement kind: melting point

Example cases with answers are listed next.
CC1(C)Oc2ccc(Br)cc2C(Oc2ccnc(O)c2)C1(C)O (centres undefined) ... 251 to 252 °C
Cc1ccc2c(c1)c(CCC(=O)O)c1n2C(=O)CCC1 ... 152 to 153 °C
O=C1CCC(O)=C1Cc1ccc2ccccc2c1 ... 230 to 231 °C
O=C(O)Cc1cccc2c1N=C(c1ccccc1)CC2=O ... 238 to 240 °C
O=C(NCc1ccc(Cl)cc1)c1cn2c3c(cc(CN4CCOCC4)cc3c1=O)OC(c1ccccc1O)C2 (centres undefined) ... 239 °C

# per-item lookup of melting point; items listed below
1. C#CCOC(=O)c1cc(-n2c(=O)c3c(n(C)c2=O)CCC3)c(F)cc1Cl
2. Nc1ncnc2c1nc(COCP(=O)(O)O)n2CCC1CCCCC1
3. CCc1cc(C(=O)c2ccccc2Cl)c(-n2c(CNC(=O)c3cc4ccccc4[nH]3)nnc2C23CC4CC(CC(C4)C2)C3)s1

Reply:
193 to 195 °C
> 250 °C
283 to 286 °C

Ask: // query melting point value for entry Cn1c([N+](=O)[O-])cnc1-c1nnc2ccc(N3CCOCC3)nn12
Reply: 240 to 242 °C

* * *

Assignment: determine reported melting point for the given compounds.

Example cases with answers are listed next.
Nc1ccc(CON=Cc2csc(N)n2)cc1 ... 181 to 183 °C
CC(C)(C)c1cc(CCN2CCN(CCc3ccc(CC(=O)O)cc3)CC2)cc(C(C)(C)C)c1O ... 210 to 213 °C
CCOP(=O)(COS(=O)(=O)c1c(C)cccc1Cl)OCC ... 41 to 43 °C
Cc1nc2c([nH]c(=O)c3ccccc32)s1 ... 310 to 320 °C

// next entry
Ask: // query melting point value for entry CC1(c2nn(-c3c(Cl)cc(C(F)(F)F)cc3Cl)cc2C#N)CC1(Cl)Cl (stereo not given)
Reply: 97 to 98.5 °C

* * *

Measurement kind: melting point (°C)
Numbers only, in °C.

Cn1ncnc1COc1nn2c(-c3c(F)cccc3F)nncc2c1-c1ccccc1F ... 163

// next entry
Ask: // query melting point value for entry CSc1cc(CCC(=O)OC(C)(C)C)cc(-c2nc(=O)c3ccccc3s2)n1
Reply: 126

* * *

Assignment: determine reported melting point for the given compounds.

Example cases with answers are listed next.
C=C(F)C(C)(C)C(=O)Nc1ccc(Cl)cc1 ... 75 to 76 °C
Cc1cccc(-c2c3c(cc4ccc5c(c24)OCO5)C(=O)NC3)c1 ... 244 to 246 °C
CN(C)S(=O)(=O)c1cc(S(=O)(=O)N(C)C)c(C(Cl)=C(Cl)Cl)cc1N ... 238 to 239 °C
COc1cc(OC)c(-c2cccn2C)cc1C=CC(=O)c1ccc(S(=O)(=O)Nc2cc(C)on2)cc1 ... 113 to 115 °C
OCc1ccc(OCc2ccc(-c3ccccc3)cn2)cc1 ... 159 to 160 °C
N#CC1=C(C2CCCCC2=O)Nc2n[nH]cc2C1c1cccc(C#N)c1Br (stereo not given) ... 273 °C
Cc1ccc(S(N)(=O)=O)cc1C(O)CN=[N+]=[N-] (stereo not given) ... 98 °C
CCC12OC1C(=O)C(Nc1ncnc3cc(OC)c(OC)cc13)=CC2=O (stereo not given) ... 202 to 204 °C

# per-item lookup of melting point; items listed below
1. CC1(C)CCC(C)(C)c2cc(-c3cc(-c4ccc(C(=O)O)cc4)ccc3OCCCCCC(=O)O)ccc21
2. O=C(O)c1cccc2c(=O)c3cc([N+](=O)[O-])ccc3[nH]c12
3. CS(=O)(=O)NC(=O)Cc1ccc2c(c1)Nc1nccnc1S2
4. COc1cc(C(C)=O)ccc1OCCCN1C2CCC1CC(c1nsc3cc(F)ccc13)C2 (stereo not given)

Reply:
1. 245 °C
2. 375 °C
3. 236 to 238 °C
4. 118 to 119 °C
